Biological target: human MRGPRD (Homo sapiens, UniProt Q8TDS7)
Sequence (Q8TDS7 whole entry): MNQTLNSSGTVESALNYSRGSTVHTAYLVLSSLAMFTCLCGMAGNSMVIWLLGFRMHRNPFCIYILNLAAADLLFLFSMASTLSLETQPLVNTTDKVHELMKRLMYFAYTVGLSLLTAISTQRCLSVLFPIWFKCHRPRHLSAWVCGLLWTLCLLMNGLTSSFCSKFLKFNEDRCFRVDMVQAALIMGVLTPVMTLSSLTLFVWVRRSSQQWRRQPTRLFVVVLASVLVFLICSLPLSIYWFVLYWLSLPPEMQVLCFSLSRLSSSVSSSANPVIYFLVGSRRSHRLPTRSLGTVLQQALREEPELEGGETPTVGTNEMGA
Experiment: MRGPRD antagonist activity, IP-One HTRF assay in CHO cells stably expressing human MRGPRD (versus 100 μM β-Alanine agonist)
Experimental: Chinese Hamster Ovary (CHO) cells stably expressing human MRGPRD (Eurofins, San Diego CA) were plated in a 384-well plate at 20,000 cells per well in 12 μL of Optimem (Fisher Scientific 11-058-021). Plates were kept in the incubator at 37° C. overnight. […] Assay plates were read on either a Molecular Devices SpectraMax iD5 plate reader or a BMG ClarioStar plate reader. The HTRF ratio was calculated form the raw data and graphed using GraphPad Prism to calculate IC50 values. […]
Listed below: IC50 values for each entry.
assayReadout: IC50

>>> assayresult("CC(=O)c1cccc(-c2cc(-n3nnc(C(=O)Nc4ccncc4)c3C3CC3)ccc2-c2c(C)nn(C)c2C)c1")
"1 to 3 µM"
>>> assayresult("Cn1ncc(CO)c1-c1ccc(-n2nnc(C(=O)Nc3ccncc3)c2C2CC2)cc1")
"1 to 3 µM"
>>> assayresult("O=C(N[C@H]1CCc2ccccc21)c1nnn(-c2ccc(-c3ccccc3)cc2)c1C1CC1")
"1 to 3 µM"
>>> assayresult("O=C(Nc1ccncc1)c1nnn(-c2cccc(-c3cnn(CC(F)(F)F)c3)c2)c1C1CC1")
"0.5 to 1 µM"
>>> assayresult("N#Cc1ccc(-c2ccc(-n3nnc(C(=O)NC4(c5cccnc5)CC4)c3C3CC3)c(F)c2)cc1")
"0.5 to 1 µM"
>>> assayresult("N#Cc1ccc(-c2ccc(-n3nnc(C(=O)NC4(c5cncc(F)c5)CC4)c3C3CC3)cc2)cc1")
"1 to 3 µM"
>>> assayresult("CCn1cc(CNC(=O)c2nnn(C3CC=C(c4ccc(C#N)cc4)CC3)c2C2CC2)cn1 (stereo not shown)")
"1 to 3 µM"

Reference source for all entries: patent US20260001871A1
